- test-system: Vasopressin V2 receptor (Homo sapiens, UniProt P30518)
- Sequence (P30518 whole entry): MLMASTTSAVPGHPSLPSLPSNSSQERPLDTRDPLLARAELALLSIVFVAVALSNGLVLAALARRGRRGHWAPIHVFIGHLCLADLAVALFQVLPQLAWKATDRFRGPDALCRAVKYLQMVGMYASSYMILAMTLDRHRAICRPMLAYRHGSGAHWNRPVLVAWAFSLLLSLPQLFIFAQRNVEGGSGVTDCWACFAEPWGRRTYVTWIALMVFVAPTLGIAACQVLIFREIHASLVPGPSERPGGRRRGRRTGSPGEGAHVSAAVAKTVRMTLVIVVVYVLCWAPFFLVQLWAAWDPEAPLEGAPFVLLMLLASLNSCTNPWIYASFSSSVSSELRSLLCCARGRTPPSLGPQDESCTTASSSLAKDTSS
- assay-text: Displacement of [3H]-AVP from human V2 receptor expressed in CHO cell membranes by radioligand binding assay
pKi: −log10 of the molar value.
readout-label: pKi

O=C(c1ccc(-c2ncccn2)cc1)N1CCCCc2ccccc21
6.48
O=C(c1ccc(Br)cc1)N1CCCCc2ccccc21
6.15
Cc1ccn(-c2ccc(C(=O)N3CCCC(O)c4ccccc43)cc2)n1 (stereo not given)
5.94
CCCCc1ccc(C(=O)N2CCCCc3ccccc32)cc1
7.28
CCCc1ccc(C(=O)N2CCCCc3ccccc32)cc1
6.92
O=C(c1ccc(-c2cccnc2)cc1)N1CCCCc2ccccc21
6.63

I: Cc1ccn(-c2ccc(C(=O)N3CCCCc4ccccc43)cc2)n1
II: O=C(c1ccc(-c2ccccc2)cc1)N1CCCCc2ccccc21
Exercise: Task for the reader: decide whether I or II has the larger pKi. Refer to your chosen item by its label in the answer.
Solution: II
